target: full-length human PKCι (Homo sapiens); construct: Recombinant, full-length human PKCι expressed in Sf21 insect cells is also commercially available; experiment: PKCι IC50 IMAP assay, full-length PKCι at 150 μM ATP; conditions: read-out: IC50 in IMAP assay against full length PKCi at 150 μM ATP
Sequence (P41743 whole entry): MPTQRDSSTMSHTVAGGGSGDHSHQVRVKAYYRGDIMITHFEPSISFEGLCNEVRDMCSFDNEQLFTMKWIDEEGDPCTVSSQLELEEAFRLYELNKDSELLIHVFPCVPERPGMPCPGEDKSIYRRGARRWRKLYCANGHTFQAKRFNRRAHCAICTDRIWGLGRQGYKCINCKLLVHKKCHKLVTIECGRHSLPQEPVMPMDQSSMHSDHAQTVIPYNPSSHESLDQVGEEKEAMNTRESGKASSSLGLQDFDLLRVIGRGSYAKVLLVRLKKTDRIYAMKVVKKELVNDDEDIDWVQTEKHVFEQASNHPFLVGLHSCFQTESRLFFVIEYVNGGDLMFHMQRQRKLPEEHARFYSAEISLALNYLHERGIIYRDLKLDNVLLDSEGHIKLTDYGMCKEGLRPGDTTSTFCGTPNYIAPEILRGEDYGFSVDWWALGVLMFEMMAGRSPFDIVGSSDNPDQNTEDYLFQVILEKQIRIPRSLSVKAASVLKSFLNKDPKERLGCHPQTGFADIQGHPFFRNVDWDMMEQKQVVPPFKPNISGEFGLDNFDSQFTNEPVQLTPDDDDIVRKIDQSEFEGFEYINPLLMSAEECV

| smiles string | IC50 |
| --- | --- |
| Cc1ccc(C(C)C)cc1Nc1cc(-c2nc(N3CCNCC3)c3c(C4CC4)cncc3n2)ccn1 | 0.1 to 1 µM |
| C[C@@H]1CN(c2nc(-c3ccnc(Nc4nc(F)cc(F)c4F)c3)nc3cncc(C4CC4)c23)C[C@H](C)N1 | < 0.1 µM |
| CC(C)C(=O)Nc1cc(-c2nc(N3CCNCC3)c3c(C4CC4)cncc3n2)ccn1 | < 0.1 µM |
| CN1CCN(c2cccc(Nc3cc(-c4nc(N5CC(O)C5)c5c(C6CC6)cncc5n4)ccn3)c2)CC1 | 0.1 to 1 µM |
| c1cc(-c2nc(N[C@@H]3CCNC3)c3ccncc3n2)ccn1 | < 0.1 µM |
| CCn1cc(Cl)c(Nc2cc(-c3nc(N4CCNCC4)c4c(C5CC5)cncc4n3)ccn2)n1 | < 0.1 µM |
| NCCNc1nc(-c2ccncc2)nc2cnccc12 | 10 to 40 µM |
| Cc1ccc(Nc2cc(-c3nc(N4CCNCC4)c4c(C5CC5)cncc4n3)ccn2)cn1 | < 0.1 µM |

Entry source: patent US9914730B2
